METHOD_SUMMARY: Inhibitory activity against prothrombinase complex (IIase).
Square brackets hold non-standard residues; d marks the D form. Peptide text beside a SMILES is read from it. * marks the point of attachment. ξ: configuration not given here. 1Nal = N[C@@H](Cc1cccc2ccccc12)C(=O)O; ξR = N=C(N)NCCCC(N)C(=O)O; Boc = CC(C)(C)OC(=O)*; ξP = O=C(O)C1CCCN1
ATTRIBUTE_MEASURED: IC50 (nM)

Reference set, count: 5
>>> value("CC(=N)NCCCC(NC(=O)OC(C)(C)C)C(=O)NCC(=O)N[C@H](C=O)CCCN=C(N)N (single isomer, unassigned)")
10000
>>> value("NC(N)=NCCCC(N)C(=O)NCC(=O)N[C@H](C=O)CCCN=C(N)N (single isomer, unassigned)")
828
>>> value("CC(C)(C)OC(=O)NC(CCCCN=C(N)N)C(=O)NCC(=O)N[C@H](C=O)CCCN=C(N)N (single isomer, unassigned)")
170
>>> value("N=C(N)NCCCC(C=O)NC(=O)CNC(=O)[C@H](CCCNC(=N)N)NS(=O)(=O)CCc1cccc2ccccc12 (some centres not stated)")
20
>>> value("CC(C)(C)OC(=O)N[C@@H](CCCN=C(N)N)C(=O)N1CCCC1C(=O)NC(C=O)CCCN=C(N)N (stereo partly drawn) (Boc-Arg-[ξP]-[ξR]-aldehyde)")
21

P: CC(C)(C)OC(=O)N[C@@H](CCCN=C(N)N)C(=O)N1CCC[C@H]1C(=O)NC(C=O)CCCN=C(N)N (stereo partly drawn) (Boc-Arg-Pro-[ξR]-aldehyde)
Q: CC(C)(C)OC(=O)N[C@@H](CCCN=C(N)N)C(=O)N[C@@H](Cc1cccc2ccccc12)C(=O)NC(C=O)CCCN=C(N)N (stereo partly drawn) (Boc-Arg-[1Nal]-[ξR]-aldehyde)
Query: Sort P and Q by IC50 descending and give the first. Answer format: the label of the selected item.
Reply: P

====

STUDY_TARGET: UniProtKB P00734
METHOD_SUMMARY: Inhibitory activity against coagulation factor II (thrombin).
pIC50: −log10 of the molar value. Square brackets hold non-standard residues; d marks the D form. Peptide text beside a SMILES is read from it. * marks the point of attachment. ξ: configuration not given here. ξR = N=C(N)NCCCC(N)C(=O)O; Boc = CC(C)(C)OC(=O)*
ATTRIBUTE_MEASURED: pIC50

Known pIC50 results, listed for orientation:
>>> value("CC(C)(C)OC(=O)NC(CCCN)C(=O)NCC(=O)N[C@H](C=O)CCCN=C(N)N (single isomer, unassigned)")
"< 3.30"
>>> value("CC(C)(C)OC(=O)N[C@@H](CCCNC(=N)N)C(=O)NCCC(=O)NC(C=O)CCCNC(=N)N (some centres undefined)")
"< 3.30"
>>> value("CC(C)(C)OC(=O)NC(CCCNC(N)=O)C(=O)NCC(=O)N[C@H](C=O)CCCN=C(N)N (single isomer, unassigned)")
"< 4.00"

Query: Specify pIC50 for CC(C)(C)OC(=O)N[C@@H](CCCN=C(N)N)C(=O)N1CCC[C@H]1C(=O)NC(C=O)CCCN=C(N)N (stereo partly drawn) (Boc-Arg-Pro-[ξR]-aldehyde) , system UniProtKB P00734.
Reply: < 3.30
